Origin of values: patent US20250268821A1

ASSAY_EXPLANATION: Sheep pharmacokinetics (ELF and plasma): nebulized inhaled nintedanib, fixed combination with pirfenidone, oral nintedanib
Type: in vivo
CONDITION_PARAMETERS: female, Merino cross-bred, sheep, plasma, inhaled or intranasal, 2 mg, inhaled nebulized, 2 mg; read-out: Plasma Cmax
RECORDED_ENDPOINT: Cmax (ng/mL)
Answers are plain numbers, in ng/mL.

[ask] Would you kindly share the measured Cmax for `COC(=O)c1ccc2c(c1)NC(=O)/C2=C(\Nc1ccc(N(C)C(=O)CN2CCN(C)CC2)cc1)c1ccccc1` ?
[reply] 5.9

* * *

ASSAY_EXPLANATION: Clinical study in healthy volunteers: inhaled nebulized vs oral nintedanib (ELF and plasma pharmacokinetics, safety)
Format: in vivo
CONDITION_PARAMETERS: human, plasma, inhaled or intranasal; inhaled nebulized liquid 2 mg; read-out: Plasma Cmax
RECORDED_ENDPOINT: Cmax (ng/mL)
Give bare numbers, in ng/mL.

[ask] Would you kindly share the measured Cmax for COC(=O)c1ccc2c(c1)NC(=O)/C2=C(\Nc1ccc(N(C)C(=O)CN2CCN(C)CC2)cc1)c1ccccc1 [Nintedanib] ?
[reply] 2.8
